Test system: KYSE-140 (Esophageal Squamous Cell Carcinoma)
Test: combination Emax (second highest fraction inhibited in the dose matrix, 72 h); higher = more inhibition; extreme values may be limits of the assay
Below is a list of entries, each paired with its recorded combination Emax value.
Hey, just send me the number, nothing else.

>>> endpointresult("C=CCn1c(=O)c2cnc(Nc3ccc(N4CCN(C)CC4)cc3)nc2n1-c1cccc(C(C)(C)O)n1 [AZD1775] + C[C@@H]1COCCN1C2=NC(=NC(=C2)C3(CC3)[S@](=N)(=O)C)C4=C5C=CNC5=NC=C4 [AZD6738] (first compound max 1 µM, partner max 10 µM)")
0.967
>>> endpointresult("COc1nnc2ccc(N3CCC(c4ccc(OCCN5CCN(C)C(=O)[C@H]5C)cc4)CC3)nn12 [AZD5153] + CN(CC[C@H](CSC1=CC=CC=C1)NC2=C(C=C(C=C2)S(=O)(=O)NC(=O)C3=CC=C(C=C3)N4CCC(CC4)[C@H](C5=CC=CC=C5C6=CC=C(C=C6)Cl)O)S(=O)(=O)C(F)(F)F)CCO [AZD4320] (first compound max 1 µM, 7x7, partner max 1 µM)")
0.695
>>> endpointresult("Cc1c2c(nn1C)CSCc1cc(n(C)n1)CSc1cc(c3ccccc3c1)OCCCc1c(C(=O)O)n(C)c3c-2c(Cl)ccc13 [AZD5991] + C[C@@H]1COCCN1C2=NC(=NC(=C2)C3(CC3)[S@](=N)(=O)C)C4=C5C=CNC5=NC=C4 [AZD6738] (first compound max 1 µM, 7x7, partner max 10 µM)")
0.925

stdin: Find the measured combination Emax: item COc1cccc(OCCCN)c1-c1cc(Nc2cnc(C#N)cn2)n[nH]1 [Prexasertib] + O=C(c1cc(Cc2n[nH]c(=O)c3ccccc23)ccc1F)N1CCN(C(=O)C2CC2)CC1 [Olaparib] (first compound max 1 µM, 7x7, partner max 10 µM) , target or system KYSE-140 (Esophageal Squamous Cell Carcinoma).
stdout: 0.826

---

Below is a list of entries, each paired with its recorded Bliss excess value.
Test system: HCC70 (Breast Carcinoma);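 note: after 72 h of two-drug dosing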
Assay: Bliss excess, mean over the matrix (fraction); higher = more synergy
Hey, just send me the number, nothing else.

>>> endpointresult("COc1cccc2c1C(=O)c1c(O)c3c(c(O)c1C2=O)C[C@@](O)(C(=O)CO)C[C@@H]3O[C@H]1C[C@H](N)[C@H](O)[C@H](C)O1 [Doxorubicin] + Cc1cc2ncnn2cc1Nc1ncc2c(n1)n(C1CCOCC1)c(=O)n2C [AZD7648] (first compound max 1 µM, 7x7, partner max 10 µM)")
0.0344
>>> endpointresult("COc1cccc(OCCCN)c1-c1cc(Nc2cnc(C#N)cn2)n[nH]1 [Prexasertib] + C[C@@H]1COCCN1C2=NC(=NC(=C2)C3(CC3)[S@](=N)(=O)C)C4=C5C=CNC5=NC=C4 [AZD6738] (first compound max 1 µM, 7x7, partner max 10 µM)")
-0.0133
>>> endpointresult("Cc1c2c(nn1C)CSCc1cc(n(C)n1)CSc1cc(c3ccccc3c1)OCCCc1c(C(=O)O)n(C)c3c-2c(Cl)ccc13 [AZD5991] + Nc1ccn([C@@H]2O[C@H](CO)[C@@H](O)C2(F)F)c(=O)n1 [Gemcitabine] (first compound max 1 µM, 7x7, partner max 0.3 µM)")
0.0365
>>> endpointresult("CN(CCO)CC[C@H](CSc1ccccc1)Nc1ccc(S(=O)(=O)NC(=O)c2ccc(N3CCC([C@@H](O)c4ccccc4-c4ccc(Cl)cc4)CC3)cc2)cc1S(=O)(=O)C(F)(F)F [AZD4320] + C=CCn1c(=O)c2cnc(Nc3ccc(N4CCN(C)CC4)cc3)nc2n1-c1cccc(C(C)(C)O)n1 [AZD1775] (first compound max 1 µM, partner max 1 µM)")
0.006
>>> endpointresult("C=CCn1c(=O)c2cnc(Nc3ccc(N4CCN(C)CC4)cc3)nc2n1-c1cccc(C(C)(C)O)n1 [AZD1775] + CCc1c2c(nc3ccc(O)cc13)-c1cc3c(c(=O)n1C2)COC(=O)[C@]3(O)CC [SN-38] (first compound max 1 µM, partner max 0.3 µM)")
-0.0528
>>> endpointresult("Cc1c2c(nn1C)CSCc1cc(n(C)n1)CSc1cc(c3ccccc3c1)OCCCc1c(C(=O)O)n(C)c3c-2c(Cl)ccc13 [AZD5991] + CN(C)CCCOc1ccc(-c2ccc3ncc4c(c3c2)n(C2CCOCC2)c(=O)n4C)cn1 [AZD0156] (first compound max 1 µM, 7x7, partner max 1 µM)")
-0.0028

Please examine the following record next.
stdin: If you can, please state the reported Bliss excess value of N#Cc1cnc(Nc2cc(NC[C@H]3CNCCO3)c(C(F)(F)F)cn2)cn1 [SRA737] + C=CCn1c(=O)c2cnc(Nc3ccc(N4CCN(C)CC4)cc3)nc2n1-c1cccc(C(C)(C)O)n1 [AZD1775] (first compound max 10 µM, partner max 1 µM) .
stdout: 0.0276
